Target: T1, MltF2 (P. aeruginosa PAO1, UniProt Q9HZY1 1-476)
T1 sequence (looked up): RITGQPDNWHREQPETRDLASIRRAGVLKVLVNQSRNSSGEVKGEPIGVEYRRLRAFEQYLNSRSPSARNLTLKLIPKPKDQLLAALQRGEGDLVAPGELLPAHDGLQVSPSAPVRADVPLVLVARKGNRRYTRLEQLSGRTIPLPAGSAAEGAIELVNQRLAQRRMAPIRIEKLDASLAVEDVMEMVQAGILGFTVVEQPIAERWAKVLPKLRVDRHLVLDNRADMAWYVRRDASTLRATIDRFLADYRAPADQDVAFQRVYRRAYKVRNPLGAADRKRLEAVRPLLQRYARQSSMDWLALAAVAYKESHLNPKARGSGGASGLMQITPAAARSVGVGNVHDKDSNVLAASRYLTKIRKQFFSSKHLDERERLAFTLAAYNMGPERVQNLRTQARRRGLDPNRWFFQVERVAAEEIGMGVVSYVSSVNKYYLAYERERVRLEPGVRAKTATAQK
Test: SPR; RlpA-Δ81 or RlpA-SPOR amine-coupled to its own CM4 chip, partner as analyte; 25 °C; 10 mM HEPES pH 7.4, 150 mM NaCl, 3 mM EDTA, 0.005% P20; alternate fitting model for PBP1a on RlpA-SPOR
Conditions: both partners purified
observable: Kd
Hi, when you answer, please include the unit after the number. Thanks!

Which Kd value belongs to RlpA-SPOR (domain or fragment, P. aeruginosa PAO1, UniProt Q9X6V6 264-342, looked up) ADGLYLQVGAFANPDAAELLKAKLSGVTAAPVFISSVVRNQQILHRVRLGPIGSADEVSRTQDSIRVANLGQPTLVRPD ?
98 nM

The reported numbers originate from paper PMC9712689.
